Molecular target: T1, hBack
T1 chimeric human/tetraodon Sortilin extracellular region, BAP tag: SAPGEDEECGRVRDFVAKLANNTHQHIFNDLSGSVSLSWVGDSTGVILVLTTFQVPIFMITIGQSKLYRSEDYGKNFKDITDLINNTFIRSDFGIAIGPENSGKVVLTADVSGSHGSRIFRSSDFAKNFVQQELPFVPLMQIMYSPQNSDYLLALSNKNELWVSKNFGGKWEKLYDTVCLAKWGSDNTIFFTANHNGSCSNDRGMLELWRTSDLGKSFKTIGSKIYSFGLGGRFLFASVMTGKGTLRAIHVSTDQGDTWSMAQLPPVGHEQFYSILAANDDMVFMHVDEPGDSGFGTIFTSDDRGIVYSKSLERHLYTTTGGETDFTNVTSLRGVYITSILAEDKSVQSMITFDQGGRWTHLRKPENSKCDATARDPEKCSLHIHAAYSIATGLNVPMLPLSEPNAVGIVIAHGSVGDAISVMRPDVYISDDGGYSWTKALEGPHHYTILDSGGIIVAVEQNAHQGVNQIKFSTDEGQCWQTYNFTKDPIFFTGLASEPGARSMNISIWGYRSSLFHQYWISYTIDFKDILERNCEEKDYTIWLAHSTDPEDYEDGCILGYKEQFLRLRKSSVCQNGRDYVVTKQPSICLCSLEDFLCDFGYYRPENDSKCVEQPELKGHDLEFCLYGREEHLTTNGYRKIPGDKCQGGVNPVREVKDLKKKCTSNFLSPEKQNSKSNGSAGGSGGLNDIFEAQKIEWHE
Assay: BLI (Octet384RED)
reported endpoint: EC50 (ng/mL)

[[record]]
binder = "Antibody 6003-471 (antibody, V domains shown) VH: QVQLVQSGAEVKKPGSSVKVSCKASGGTFSNYAISWVRQAPGQGLEWMGRIIPIFGIANYAQKFQGRVTITADKSTSTAYMELSSLRSEDTAVYYCARDRRGFSGYEVFDYWGQGTLVTVSS VL: DIQMTQSPSSLSASVGDRVTITCRASQGISSWLAWYQQKPEKAPKSLIYATSSLQSGVPSRFSGSGSGTDFTLTISSLQPEDFATYYCQQYNSYPITFGQGTRLEIK"
result_value = 2.54

[[record]]
binder = "IgG1-6003-408 (antibody, V domains shown, also called Antibody 6003-408) VH: EVQLVESGGGLVKPGGSLRLSCAASGFTFSSYSMNWVRQAPGKGLEWVSSISSSSSYIYYADSVKGRFTISRDNAKNSLYLQMNSLRAEDTAVYYCARRRIAAAGTGYGAFDIWGQGTMVTVSS VL: ARQLTQSPSSLSASVGDRVTITCRASQGITSALAWYQQKPGKVPKLLIYDASSLESGVPSRFSGSGSGTDFTLTISSLQPEDFATYYCQQFNGYPMFSFGQGTKLEII"
result_value = 2.37

[[record]]
binder = "Antibody 6003-028 (antibody, human IgG1, V domains shown) VH: EVQLLESGGGLVQPGGSLRLSCAASGFTFSSYAMSWVRQAPGKGLEWVSTISGRGGSTYYADSVKGRFTISRDNSKNTLYLQMNSLRAEDTAVYYCANLYSNYWYFDLWGRGTLVTVSS VL: EIVLTQSPATLSLSPGERATLSCRASQSVSSFLAWYQQKPGQAPRLLIYDASNRATGIPARFSGSGSGTDFTLTISSLEPEDFAVYYCQQRSNWPLTFGGGTKVEIK"
result_value = 1.87

